- Test system: Plasmodium berghei
- Assay Method Text: Luciferase/luciferin-expressing antifolate-resistant parasites were used to infect a culture of HepG2 cells that were pre-incubated with compounds. Infected hepatocytes emit light due to the luciferase reaction. Assay results are presented as the percent inhibition of light emission compared to control. […]
- Assay type: functional
- Conditions: sporozoite, HEPG2TOX_HILL_SLOPE 17.1, HEPG2TOX_R_SQUARED 0.65, PBLUC_HILL_SLOPE 0.759, PBLUC_R_SQUARED 0.724, read-out: LUCIFERASE INFECTION ASSAY - IC50
Parameter: pIC50
Note on pIC50: it is the negative log10 of concentration, concentration in mol/L.

Any idea what its pIC50 is? The compound is Cc1cc(NC(=O)N2CCN(Cc3ccc(-c4ccccc4Cl)s3)CC2)no1
5.92
